- Protocol Description: inhibition of 3D7 malaria parasite growth – strain 3D7 (AID 2306);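 further: 0% = DMSO wells and 100% = chloroquine plus artemisinin control wells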
- Condition Details: P. falciparum 3D7 erythrocytic growth, LDH absorbance, 72 h; at 2 µM; stronger effect = higher value
# maps each entry to its growth inhibition

Compound: CC(C)(C)c1ccc(NC(=O)c2ccc(CN3CCCN(Cc4cccc(F)c4)CC3)cc2)cc1
growth inhibition [%]: 90

Compound: Cc1cc(-c2ccc(CN3Cc4ccccc4C3)cc2)ccc1S(=O)(=O)NCCN1CCCC1
growth inhibition [%]: 94

Compound: O=C(/C=C/c1ccc(Cl)c(Cl)c1)NCCCCCN1CCC(NC(=S)Nc2ccc(Cl)cc2Cl)CC1
growth inhibition [%]: 99

Compound: CC(C)c1ccc(-c2nc3ncc(Cl)cc3[nH]2)cc1
growth inhibition [%]: 87

Compound: Cc1ccc(C)c(NC(=O)NCCNc2ccnc(Nc3ccc(F)cc3)n2)c1
growth inhibition [%]: 97

Compound: CCN1CCN(c2cc(C)c3cc(NC(=O)c4cccc(OC)c4)ccc3n2)CC1
growth inhibition [%]: 99

Compound: CC(C)c1cc2c(ccc3nc(N)nc(N)c32)[nH]1
growth inhibition [%]: 93

Compound: NC(=O)c1cc2nc(Nc3ccc(F)cc3)nc(Nc3ccc(S(N)(=O)=O)cc3)c2[nH]1
growth inhibition [%]: 101

Compound: CCNc1cc(C(=O)N[C@@H](Cc2ccccc2)[C@H](O)CNC2(C(C)C)CCC2)cc(N2CCCCS2(=O)=O)c1
growth inhibition [%]: 99

Compound: O=C(Nc1ccc2c(c1)CCN2C1CCN(Cc2ccc(O)cc2)C1)c1ccco1 (stereo not given)
growth inhibition [%]: 97

---

- Target System: L-lactate dehydrogenase (Plasmodium falciparum (isolate CDC / Honduras))
- Protocol Description: PfLDH activity inhibition – cell lysate, 3D7 strain, counter-screen for P. falciparum growth inhibition project (AID 2304);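 further: 0% = vehicle and 100% = reference inhibitor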
- Condition Details: P. falciparum 3D7 crude extract, LDH APAD/NBT absorbance; at 2 µM; stronger effect = higher value
// values below are reported inhibition
Attribute Measured: inhibition (%)

Molecule Smiles: COC(=O)Cn1c2ccccc2c2c(N)c(C(=O)OC)c(C)nc21
Experimental Value: 4

Molecule Smiles: Cc1csc2nc(-c3ccccn3)nc(Nc3ccncn3)c12
Experimental Value: -3

Molecule Smiles: CC=Cc1cc(Cc2cnc(N)nc2N)cc(CCC)c1OC
Experimental Value: 5

Molecule Smiles: COc1cc2c(cc1OC)C(C(=O)c1ccccc1)=NCC2
Experimental Value: 0

---

- Protocol Description: antimalarial activity against Dd2 strain (AID 2302);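 further: 0% = DMSO untreated growth and 100% = chloroquine plus artemisinin killed control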
- Condition Details: P. falciparum Dd2 in RBCs, LDH growth readout, 72 h; at 2 µM; stronger effect = higher value

Molecule: CC1N=C(N)N=C(N)N1OCc1ccccc1 (centres undefined)
growth inhibition, %: 72

Molecule: CCN(CC)CCNc1ccc(Nc2ccnc3cc4ccccc4cc23)cc1
growth inhibition, %: 99

Molecule: CNCc1cccc(-c2ccc3ccnc(N)c3c2)c1
growth inhibition, %: 98

Molecule: CCC(=O)c1ccc(-c2ccc(=O)n(CC(=O)N(CCN(CC)CC)Cc3ccc(-c4ccc(C(F)(F)F)cc4)cc3)n2)cc1
growth inhibition, %: 67

---

- Protocol Description: antimalarial activity against Dd2 strain (AID 2302);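 further: 0% = DMSO untreated growth and 100% = chloroquine plus artemisinin killed control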
- Condition Details: P. falciparum Dd2 in RBCs, LDH growth readout, 72 h; at 2 µM
The source made the active and inactive calls.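 How the source made its calls: active means growth inhibition above 50% at the single 2 µM test dose, taken to imply half-maximal potency below 2 µM; inactive means the rest.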
Outcome codes: true (1) for active, false (0) for inactive

Compound: CCc1ccc(NC(=O)c2ccc(CN3CCCN(CC4CCCCC4)CC3)cc2)cc1
Class Name: false (0)
//
Compound: CCOc1ccc(CCCON2C(N)=NC(N)=NC2(C)C)cc1
Class Name: true (1)
//
Compound: Cc1ccc(NC(=O)c2ccc(CN3CCCN(Cc4cccc(C#N)c4)CC3)cc2)cc1F
Class Name: false (0)
//
Compound: COc1cccc(-c2csc(C(=O)NCC3CCN(Cc4ccc(C(C)(C)C)cc4)C3)c2)c1 (configuration not stated)
Class Name: false (0)
//
Compound: COc1ccc2nc(C)cc(NN=Cc3ccc(Cl)cc3)c2c1
Class Name: true (1)
//
Compound: COc1c(C2CCN(CCCCNC(=O)c3ccc(-c4ccc(NC(=O)C(F)(F)F)cc4)cc3)CC2)ccc2c1CCCC2
Class Name: false (0)
//
Compound: CCOC(=O)c1ccc(NC(=O)Nc2ccc(-c3ccc(-c4nc5ccccc5[nH]4)cc3)cc2)cc1
Class Name: true (1)
//
Compound: CC1(C)N=C(N)N=C(N)N1OCCCc1c(Cl)cccc1Cl
Class Name: true (1)
//
Compound: S=C(NN=Cc1ccccn1)NC1C[C@H]2C=C[C@@H]1C2 (some centres not stated)
Class Name: true (1)
//
Compound: CN(Cc1cccc(F)c1)C1CCN(c2cc(NC(=O)c3ccc(F)cc3)ccn2)CC1
Class Name: false (0)
//
Compound: CN1CCC(Oc2cc(NC(=O)Nc3ccc(-c4ccncc4)c(Cl)c3)ccc2Cl)CC1
Class Name: true (1)
//
Compound: O=C(/C=C/c1ccc(-c2ccccc2)cc1)NCCCCCN1CCC(c2c[nH]c3ccccc23)CC1
Class Name: false (0)

---

- Target System: L-lactate dehydrogenase (Plasmodium falciparum (isolate CDC / Honduras))
- Protocol Description: PfLDH activity inhibition – cell lysate, 3D7 strain, counter-screen for P. falciparum growth inhibition project (AID 2304);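 further: 0% = vehicle and 100% = reference inhibitor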
- Condition Details: P. falciparum 3D7 crude extract, LDH APAD/NBT absorbance; at 2 µM; stronger effect = higher value
inhibition values for the compounds below.
Attribute Measured: inhibition (%)

Compound: O=C(NC1CC1)c1ccc(N2CCCC(COc3ccccc3F)C2)nc1 (centres undefined)
Target System: L-lactate dehydrogenase (Plasmodium falciparum (isolate CDC / Honduras))
Experimental Value: -2
//
Compound: Nc1nccc(-c2ccc3c(/C=C/c4ccccc4)cnc(N)c3c2)n1
Target System: L-lactate dehydrogenase (Plasmodium falciparum (isolate CDC / Honduras))
Experimental Value: 2
//
Compound: CSCCCN1CCC(O)(c2ccc3oc(C(=O)Nc4ccc5sc(C)nc5c4)cc3c2)CC1
Target System: L-lactate dehydrogenase (Plasmodium falciparum (isolate CDC / Honduras))
Experimental Value: 4
//
Compound: CCOc1ccc2c(NN=Cc3cccc(OC)c3)cc(C)nc2c1
Target System: L-lactate dehydrogenase (Plasmodium falciparum (isolate CDC / Honduras))
Experimental Value: -5

---

- Protocol Description: antimalarial activity against Dd2 strain (AID 2302);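 further: 0% = DMSO untreated growth and 100% = chloroquine plus artemisinin killed control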
- Condition Details: P. falciparum Dd2 in RBCs, LDH growth readout, 72 h; at 2 µM; stronger effect = higher value
# growth inhibition per record follows

Molecule Smiles: CS(=O)(=O)c1ccc(-c2cnc(N)c(-c3cccc(O)c3)c2)cc1
growth inhibition, %: 97

Molecule Smiles: Clc1cccc(-c2nc(Nc3ccnc(-c4ccc(CN5CCOCC5)cc4)c3)c3ccccc3n2)c1
growth inhibition, %: 65

Molecule Smiles: COc1cc2sc(=NC(=O)c3cccc([N+](=O)[O-])c3)n(C)c2cc1OC
growth inhibition, %: 79

---

- Target System: Calcium-dependent protein kinase 4 (Plasmodium falciparum (isolate 3D7))
- Protocol Description: PfCDPK4 kinase inhibitors, biochemical, TCAMS library (AID 1159588)
- Condition Details: recombinant PfCDPK4, Kinase-Glo ATP depletion luminescence
Results with a measured potency or affinity are listed apart. The source made the active and inactive calls. The limit is not given here; nearly all actives have IC50 up to about 0.91 µM.

Compound: COc1cccc(NC(=O)NC2CCN(c3ccnc(Nc4ccc(F)cc4)n3)C2)c1 (stereo not drawn)
outcome: inactive

Compound: Cc1csc(-c2nc(NCCc3c(C)noc3C)ncc2-c2ccsc2)n1
outcome: inactive

Compound: O=C1C2C(C(=O)N1c1ccccc1)[C@H]1S[C@@H]2c2c1ccc1ccccc21 (stereo partly drawn)
outcome: inactive

---

- Protocol Description: HepG2 cytotoxicity, primary screen, cytotoxicity control for P. falciparum antimalarial project, cell-based, ATP luminescence (AID 2303);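 further: 0% = DMSO wells and 100% = digitonin-killed cells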
- Condition Details: HepG2 viability, 24-48 h, at 10 µM
Active and inactive are the calls of the source.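 The calls were made as follows: active = inhibition above 50%; inactive = the rest.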
Possible outcomes: 1 (yes) (active), 0 (no) (inactive)

Molecule Smiles: COc1ccc(C=Cc2cc(N)c3ccccc3n2)cc1Br
Class Name: 1 (yes)
//
Molecule Smiles: c1ccc2c(CNCCCCCCNCc3c(OCC4CC4)ccc4ccccc34)c(OCC3CC3)ccc2c1
Class Name: 1 (yes)
//
Molecule Smiles: Nc1nc(Nc2cccc(Cl)c2)ncc1C(=O)NCc1ccncc1
Class Name: 0 (no)

---

- Protocol Description: HepG2 cytotoxicity, primary screen, cytotoxicity control for P. falciparum antimalarial project, cell-based, ATP luminescence (AID 2303);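 further: 0% = DMSO wells and 100% = digitonin-killed cells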
- Condition Details: HepG2 viability, 24-48 h, at 10 µM
The source made the active and inactive calls.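 The calls were made as follows: active = inhibition above 50%; inactive = the rest.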
Outcomes: active, inactive

Molecule: CN(C)c1ccc(CN2CCC(CNC(=O)c3cc(-c4ccccc4Cl)cs3)C2)cc1 (stereo not given)
Class Name: inactive

Molecule: N#CNC(=NCCCSc1csc(N=C(N)N)n1)NCCCCCCCCN=C(NC#N)NCCSCc1csc(N=C(N)N)n1
Class Name: inactive

Molecule: CN1CCN(CCCNc2ncc3c(-c4ccc(NC(=O)Nc5cc(C(F)(F)F)ccc5F)c(F)c4)nn(C)c3n2)CC1
Class Name: active

Molecule: Cc1noc(-c2cccs2)c1C(=O)NC(C)c1cccc2ccccc12 (stereo not given)
Class Name: inactive

Molecule: Cc1ccc(-c2cc(C(=O)Nc3ccc(S(=O)(=O)N4CCCCC4C)cc3)[nH]n2)c(O)c1 (stereo not given)
Class Name: inactive

Molecule: CCC(CC)C(CC(=O)NC(C)(C)CCc1ccccc1OC)Nc1ccc(C#N)c2ccccc12 (stereo not given)
Class Name: inactive

Molecule: CC(C)(C)c1ccc(CN2CCC(CNC(=O)c3cc(-c4ccccc4)nc4ccccc34)CC2)cc1
Class Name: inactive

Molecule: Cc1[nH]c(C)c(-c2ccc(-c3ccc(OC(F)(F)F)cc3)cc2)c(=O)c1Br
Class Name: inactive

Molecule: CC(O)C1CCCCN1C(=O)c1cccc(-c2ccc(-c3nc4ccc(C(F)(F)F)cc4[nH]3)cc2)c1 (stereo not given)
Class Name: inactive

Molecule: NC1=NC(c2ccccc2)N(c2ccc(Cl)c(Cl)c2)C(N)=N1 (stereo not given)
Class Name: inactive

Source listed as PubChem BioAssay.
